Each recorded value in this set is attributed to ChEMBL document CHEMBL1155896.

biological target: Adenosine receptor A2a (Homo sapiens); experiment: biochemical
Description: Displacement of [3H]ZM241385 from human adenosine A2A receptor expressed in HEK293 cell membrane
Assign labels as follows, please: Met for Ki below 90 nM; Not met for Ki equal to or exceeding 90 nM.

Q. Say whether its Ki is strictly beneath 90 nM. Entry: `N#Cc1c(-c2ccccc2)cc(-c2ccc[nH]2)nc1N`
A. Not met

Q. Okay, and `N#Cc1c(-c2ccc3c(c2)OCO3)cc(-c2ccco2)nc1N` ?
A. Met

Q. Okay, and `Cc1cccc(-c2cc(-c3ccco3)nc(N)c2C#N)c1` ?
A. Not met

Q. Okay, and `N#Cc1c(-c2ccc(Cl)c(Cl)c2)cc(-c2ccco2)nc1N` ?
A. Not met

Q. Okay, and `N#Cc1c(-c2cccs2)cc(-c2ccccc2)nc1N` ?
A. Met

Q. Okay, and `COc1ccc(-c2cc(-c3ccccc3)nc(N)c2C#N)cc1OC` ?
A. Not met

Q. Okay, and `N#Cc1c(-c2ccccc2)cc(-c2ccco2)nc1N` ?
A. Met

Q. Okay, and `N#Cc1c(-c2ccc(O)cc2)cc(-c2ccco2)nc1N` ?
A. Met

Q. Okay, and `Cc1cccc(-c2cc(-c3ccccc3)nc(N)c2C#N)c1` ?
A. Not met

Q. Okay, and `N#Cc1c(-c2ccco2)cc(-c2ccccc2)nc1N` ?
A. Met

Q. Okay, and `N#Cc1c(-c2ccc(Cl)cc2)cc(-c2ccco2)nc1N` ?
A. Not met

###

biological target: Adenosine receptor A1 (Homo sapiens, UniProt P30542)
Sequence (P30542 whole entry): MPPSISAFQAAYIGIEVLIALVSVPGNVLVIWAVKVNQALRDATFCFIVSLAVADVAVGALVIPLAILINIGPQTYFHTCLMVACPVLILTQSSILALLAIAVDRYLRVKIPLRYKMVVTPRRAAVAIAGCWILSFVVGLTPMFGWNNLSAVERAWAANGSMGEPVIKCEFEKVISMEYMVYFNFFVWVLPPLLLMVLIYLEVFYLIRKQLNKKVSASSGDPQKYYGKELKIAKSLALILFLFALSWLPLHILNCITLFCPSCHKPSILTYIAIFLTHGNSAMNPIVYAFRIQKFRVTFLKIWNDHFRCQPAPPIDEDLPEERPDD
So I've got a bunch of molecules here, and I need their Ki values.
Unit nM implied. Number only.

Q. Would you kindly share the measured Ki for `N#Cc1c(-c2cccs2)cc(-c2ccco2)nc1N` ?
A. 28

Q. Okay, and `N#Cc1c(-c2cccc(OC(F)(F)F)c2)cc(-c2ccco2)nc1N` ?
A. 270

Q. Okay, and `Cc1ccc(-c2cc(-c3ccco3)nc(N)c2C#N)o1` ?
A. 100

Q. Okay, and `N#Cc1c(-c2ccccc2)cc(-c2cccs2)nc1N` ?
A. 12

Q. Okay, and `N#Cc1c(-c2ccco2)cc(-c2ccco2)nc1N` ?
A. 12

Q. Okay, and `N#Cc1c(-c2ccc(Cl)c(Cl)c2)cc(-c2ccco2)nc1N` ?
A. 68

###

target: Adenosine receptor A2a (Homo sapiens, UniProt P29274); assay: biochemical
Sequence (P29274 whole entry): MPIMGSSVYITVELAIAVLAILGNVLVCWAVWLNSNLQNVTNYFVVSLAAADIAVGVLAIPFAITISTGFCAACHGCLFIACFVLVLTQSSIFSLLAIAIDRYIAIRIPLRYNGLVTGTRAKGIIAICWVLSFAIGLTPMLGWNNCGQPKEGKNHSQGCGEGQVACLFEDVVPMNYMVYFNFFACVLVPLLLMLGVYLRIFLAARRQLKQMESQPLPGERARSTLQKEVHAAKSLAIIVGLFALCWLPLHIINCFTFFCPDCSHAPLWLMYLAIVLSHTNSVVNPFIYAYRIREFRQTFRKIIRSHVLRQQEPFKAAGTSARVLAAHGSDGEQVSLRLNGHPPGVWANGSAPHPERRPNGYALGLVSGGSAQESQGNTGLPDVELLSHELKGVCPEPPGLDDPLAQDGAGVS
attribute_measured: pKi
Just so you know, pKi here is -log10 of the concentration in molar units; reply with that number alone.

Q. Would you kindly share the measured pKi for `N#Cc1c(-c2ccco2)cc(-c2cccs2)nc1N` ?
A. 7.92

Q. Okay, and `Cc1ccc(-c2cc(-c3ccco3)nc(N)c2C#N)o1` ?
A. 7.82

Q. Okay, and `N#Cc1c(-c2ccccc2)cc(-c2ccccc2)nc1N` ?
A. 6.89

Q. Okay, and `N#Cc1c(-c2cccs2)cc(-c2cccs2)nc1N` ?
A. 7.49

Q. Okay, and OC[C@H]1O[C@@H](n2cnc3c(NC4CCCC4)ncnc32)[C@H](O)[C@@H]1O [N6-CYCLOPENTYLADENOSINE] ?
A. 5.77

Q. Okay, and `N#Cc1c(-c2cccs2)cc(-c2ccco2)nc1N` ?
A. 8.85

Q. Okay, and `N#Cc1c(-c2ccco2)cc(-c2ccco2)nc1N` ?
A. 9.00

Q. Okay, and `N#Cc1c(-c2ccccc2)cc(-c2cccs2)nc1N` ?
A. 7.06

Q. Okay, and `N#Cc1c(-c2cccc(OC(F)(F)F)c2)cc(-c2ccccc2)nc1N` ?
A. 7.24

###

Molecular target: Adenosine receptor A3 (Homo sapiens) (UniProt P0DMS8)
Sequence (whole entry): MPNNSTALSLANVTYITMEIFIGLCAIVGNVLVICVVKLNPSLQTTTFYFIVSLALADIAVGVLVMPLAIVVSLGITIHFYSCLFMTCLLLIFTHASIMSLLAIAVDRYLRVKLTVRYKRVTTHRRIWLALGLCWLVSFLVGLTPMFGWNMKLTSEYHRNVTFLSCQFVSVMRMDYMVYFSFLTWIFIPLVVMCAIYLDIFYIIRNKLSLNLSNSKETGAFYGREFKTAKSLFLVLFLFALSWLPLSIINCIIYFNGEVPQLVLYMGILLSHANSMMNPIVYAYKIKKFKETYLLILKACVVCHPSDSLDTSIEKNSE
Test: Displacement of [3H]AB-MECA from human adenosine A3 receptor expressed in HEK293 cell membrane at 1 uM
Format: cell membranes
Class (required): determined from Activity; valid ranges are low = under 20%, medium = from 20% up to 30%, high = 30% and over

Q. Hi, small favor: classify `N#Cc1c(-c2cccs2)cc(-c2ccco2)nc1N` by its Activity when you get a moment.
A. high

Q. Okay, and `N#Cc1c(-c2ccco2)cc(-c2cccs2)nc1N` ?
A. high

Q. Okay, and `COc1ccc(-c2cc(-c3ccccc3)nc(N)c2C#N)cc1OC` ?
A. high

Q. Okay, and `N#Cc1c(-c2ccco2)cc(-c2ccccc2)nc1N` ?
A. medium

Q. Okay, and `N#Cc1c(-c2ccccc2)cc(-c2ccco2)nc1N` ?
A. medium

Q. Okay, and `N#Cc1c(-c2cccs2)cc(-c2ccccc2)nc1N` ?
A. low

Q. Okay, and `N#Cc1c(-c2cccc(OC(F)(F)F)c2)cc(-c2ccco2)nc1N` ?
A. low

Q. Okay, and `Cc1cccc(-c2cc(-c3ccco3)nc(N)c2C#N)c1` ?
A. low

Q. Okay, and `N#Cc1c(-c2cccs2)cc(-c2cccs2)nc1N` ?
A. high

Q. Okay, and `N#Cc1c(-c2ccc(O)cc2)cc(-c2ccco2)nc1N` ?
A. high

Q. Okay, and `COc1ccc(-c2cc(-c3ccco3)nc(N)c2C#N)cc1` ?
A. medium

Q. Okay, and `N#Cc1c(-c2ccccc2)cc(-c2ccccc2)nc1N` ?
A. high

Q. Okay, and `Cc1ccc(-c2cc(-c3ccco3)nc(N)c2C#N)o1` ?
A. medium

Q. Okay, and `N#Cc1c(-c2ccc3c(c2)OCO3)cc(-c2ccccc2)nc1N` ?
A. high

Q. Okay, and `Cc1cccc(-c2cc(-c3ccccc3)nc(N)c2C#N)c1` ?
A. high

Q. Okay, and `Cc1ccc(-c2cc(-c3ccco3)nc(N)c2C#N)cc1` ?
A. medium

Q. Okay, and `N#Cc1c(-c2cccc(OC(F)(F)F)c2)cc(-c2ccccc2)nc1N` ?
A. medium

Q. Okay, and `N#Cc1c(-c2ccc(O)cc2)cc(-c2ccccc2)nc1N` ?
A. low

Q. Okay, and `CN(C)c1ccc(-c2cc(-c3ccccc3)nc(N)c2C#N)cc1` ?
A. low

Q. Okay, and `N#Cc1c(-c2ccccc2)cc(-c2cccs2)nc1N` ?
A. high

Q. Okay, and `N#Cc1c(-c2ccc(-c3ccccc3)cc2)cc(-c2ccco2)nc1N` ?
A. low

###

target: UniProt P29275; test: Displacement of [3H]MRS1754 from human adenosine A2B receptor expressed in CHO cell membrane at 1 uM; assay type: cell membranes
Sequence (P29275 whole entry): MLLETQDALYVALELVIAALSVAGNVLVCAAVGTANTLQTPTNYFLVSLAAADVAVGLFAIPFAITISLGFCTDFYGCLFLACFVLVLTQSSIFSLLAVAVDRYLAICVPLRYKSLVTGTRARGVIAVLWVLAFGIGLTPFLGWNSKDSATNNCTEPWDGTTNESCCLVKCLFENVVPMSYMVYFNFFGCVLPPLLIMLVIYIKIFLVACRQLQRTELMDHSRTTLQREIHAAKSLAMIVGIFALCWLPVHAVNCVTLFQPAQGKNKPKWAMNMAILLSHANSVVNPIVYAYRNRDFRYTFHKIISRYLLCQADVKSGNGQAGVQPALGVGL
Give Y when the value for Activity is at least 30%. Give N when it is less.

Q. Entry `N#Cc1c(-c2ccccc2)cc(-c2ccccc2)nc1N` : is its Activity no less than 30%?
A. N

Q. Okay, and `N#Cc1c(-c2ccc3c(c2)OCO3)cc(-c2ccco2)nc1N` ?
A. N

Q. Okay, and `N#Cc1c(-c2ccc3c(c2)OCO3)cc(-c2ccccc2)nc1N` ?
A. N

Q. Okay, and `N#Cc1c(-c2ccc(Cl)cc2)cc(-c2ccco2)nc1N` ?
A. Y

Q. Okay, and `N#Cc1c(-c2cccs2)cc(-c2ccccc2)nc1N` ?
A. Y

Q. Okay, and `N#Cc1c(-c2ccc(-c3ccccc3)cc2)cc(-c2ccco2)nc1N` ?
A. N

Q. Okay, and `N#Cc1c(-c2cccs2)cc(-c2cccs2)nc1N` ?
A. N

Q. Okay, and `COc1ccc(-c2cc(-c3ccccc3)nc(N)c2C#N)cc1OC` ?
A. N

Q. Okay, and `CN(C)c1ccc(-c2cc(-c3ccco3)nc(N)c2C#N)cc1` ?
A. N

Q. Okay, and `N#Cc1c(-c2ccc(Cl)c(Cl)c2)cc(-c2ccco2)nc1N` ?
A. N

Q. Okay, and `CC(C)Oc1ccc(-c2cc(-c3ccco3)nc(N)c2C#N)cc1` ?
A. N

Q. Okay, and `COc1ccc(-c2cc(-c3ccco3)nc(N)c2C#N)cc1OC` ?
A. Y

Q. Okay, and `N#Cc1c(-c2cccc(OC(F)(F)F)c2)cc(-c2ccco2)nc1N` ?
A. N

Q. Okay, and `N#Cc1c(-c2ccccc2)cc(-c2ccc[nH]2)nc1N` ?
A. Y

Q. Okay, and `N#Cc1c(-c2cccc(OC(F)(F)F)c2)cc(-c2ccccc2)nc1N` ?
A. N

Q. Okay, and `Cc1ccc(-c2cc(-c3ccco3)nc(N)c2C#N)cc1` ?
A. N

Q. Okay, and `Cc1cccc(-c2cc(-c3ccccc3)nc(N)c2C#N)c1` ?
A. Y

Q. Okay, and `N#Cc1c(-c2ccccc2)cc(-c2cccs2)nc1N` ?
A. Y

Q. Okay, and `COc1ccc(-c2cc(-c3ccco3)nc(N)c2C#N)cc1` ?
A. Y

Q. Okay, and `N#Cc1c(-c2ccc(O)cc2)cc(-c2ccccc2)nc1N` ?
A. N

Q. Okay, and `CN(C)c1ccc(-c2cc(-c3ccccc3)nc(N)c2C#N)cc1` ?
A. N
